# MEASURED TARGET: HLA-A*02:12
# EXPERIMENT: IEDB peptide-MHC binding, purified MHC/competitive/fluorescence; filed as Kd, often an IC50 or EC50 that approximates it; bounds were set here for any values at or beyond the usual limits of such assays
# CONDITION INFO: source organism: Campylobacter jejuni subsp. jejuni NCTC 11168 = ATCC 700819
PROPERTY LABEL: Kd

# lookup: Kd of AELIDSFTW
≥ 20 µM

* * *

# MEASURED TARGET: HLA-A*02:01
# EXPERIMENT: IEDB peptide-MHC binding, purified MHC/direct/fluorescence; filed as Kd, often an IC50 or EC50 that approximates it; bounds were set here for any values at or beyond the usual limits of such assays
# CONDITION INFO: source organism: Rickettsia sibirica
PROPERTY LABEL: Kd
State the value with its unit after it.

# lookup: Kd of KLYFWIPWS
197 nM

Data provenance: the Immune Epitope Database (IEDB)
